Recorded values, source PubChem BioAssay (NCI).

System: NCI/ADR-RES ovarian
Assay: NCI-60 one-dose screen, 48 h (100 = growth as untreated, 0 = no growth, -100 = all killed)
Conditions: 10 µM unless noted
This is part of a sample that, as a whole, favours compounds with a hit. Of some 83,000 tested, about 20% had one in any assay.
assay.readout: growth (%)

1. CCC(C)(O)Cc1ccc(Cl)cc1 (stereo not given) ... 111
2. COc1cc(OC)c(/C=C/c2c3ccccc3cc[n+]2C)c(OC)c1 ... 96.6
3. C[n+]1ccccc1C[n+]1ccccc1 ... 113
4. COc1ccc(C(Cn2ccnc2)Sc2ccc(Cl)c(Cl)c2)cc1 (stereo not given) ... 69.1
5. O=C1CSC(=S)N1Cc1cccnc1 ... 106
6. Cc1cccc2c(N)c3ccccc3nc12 ... -47.5
7. O=C(/C=C/c1ccccc1)c1ccccc1O ... 93.8
8. O=C(CCl)N(c1ccccc1)c1ccccc1 ... 108
9. CCOC(=O)C1=NN(c2ccccc2)C(=O)/C1=C\N1C(=O)/C(=C/c2cccc(O)c2)SC1=S ... 99.3
10. Cc1nc([N+](=O)[O-])c(Sc2nncc(-c3ccccc3)n2)n1C ... 81.3
